# TARGET_OR_SYSTEM: UniProt Q9UNQ0
# Sequence (Q9UNQ0 whole entry): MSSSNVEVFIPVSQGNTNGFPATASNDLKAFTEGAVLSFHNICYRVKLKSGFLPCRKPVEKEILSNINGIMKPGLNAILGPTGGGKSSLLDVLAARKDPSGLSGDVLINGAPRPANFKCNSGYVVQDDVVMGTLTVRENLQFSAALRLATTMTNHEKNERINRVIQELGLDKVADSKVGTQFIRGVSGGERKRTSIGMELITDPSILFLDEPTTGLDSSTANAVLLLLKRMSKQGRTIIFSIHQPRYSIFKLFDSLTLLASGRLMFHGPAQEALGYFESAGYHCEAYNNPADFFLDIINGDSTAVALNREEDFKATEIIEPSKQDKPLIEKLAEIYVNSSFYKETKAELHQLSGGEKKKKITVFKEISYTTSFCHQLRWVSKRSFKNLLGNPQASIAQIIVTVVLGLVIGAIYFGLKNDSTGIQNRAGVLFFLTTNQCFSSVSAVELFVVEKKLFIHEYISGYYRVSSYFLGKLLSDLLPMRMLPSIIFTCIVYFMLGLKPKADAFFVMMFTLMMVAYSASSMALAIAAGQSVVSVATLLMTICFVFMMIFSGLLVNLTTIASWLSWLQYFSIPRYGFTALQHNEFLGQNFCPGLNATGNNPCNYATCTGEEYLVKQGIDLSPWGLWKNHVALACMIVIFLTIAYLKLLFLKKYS
# EXPERIMENT_DESCRIPTION: biochemical
QUANTITY_KIND: EC50 (nM)
Give just the number in nM; leave the unit off.

input: // EC50 lookup, key: COc1cc2nccc(Oc3ccc(NC(=O)C4(C(=O)Nc5ccc(F)cc5)CC4)cc3)c2cc1OC [cabozantinib]
output: 734
